Molecular target: human recombinant HDAC6 (Homo sapiens, UniProt Q9UBN7)
Construct: purchased Calbiochem Inc. 382180
Sequence (Q9UBN7 whole entry): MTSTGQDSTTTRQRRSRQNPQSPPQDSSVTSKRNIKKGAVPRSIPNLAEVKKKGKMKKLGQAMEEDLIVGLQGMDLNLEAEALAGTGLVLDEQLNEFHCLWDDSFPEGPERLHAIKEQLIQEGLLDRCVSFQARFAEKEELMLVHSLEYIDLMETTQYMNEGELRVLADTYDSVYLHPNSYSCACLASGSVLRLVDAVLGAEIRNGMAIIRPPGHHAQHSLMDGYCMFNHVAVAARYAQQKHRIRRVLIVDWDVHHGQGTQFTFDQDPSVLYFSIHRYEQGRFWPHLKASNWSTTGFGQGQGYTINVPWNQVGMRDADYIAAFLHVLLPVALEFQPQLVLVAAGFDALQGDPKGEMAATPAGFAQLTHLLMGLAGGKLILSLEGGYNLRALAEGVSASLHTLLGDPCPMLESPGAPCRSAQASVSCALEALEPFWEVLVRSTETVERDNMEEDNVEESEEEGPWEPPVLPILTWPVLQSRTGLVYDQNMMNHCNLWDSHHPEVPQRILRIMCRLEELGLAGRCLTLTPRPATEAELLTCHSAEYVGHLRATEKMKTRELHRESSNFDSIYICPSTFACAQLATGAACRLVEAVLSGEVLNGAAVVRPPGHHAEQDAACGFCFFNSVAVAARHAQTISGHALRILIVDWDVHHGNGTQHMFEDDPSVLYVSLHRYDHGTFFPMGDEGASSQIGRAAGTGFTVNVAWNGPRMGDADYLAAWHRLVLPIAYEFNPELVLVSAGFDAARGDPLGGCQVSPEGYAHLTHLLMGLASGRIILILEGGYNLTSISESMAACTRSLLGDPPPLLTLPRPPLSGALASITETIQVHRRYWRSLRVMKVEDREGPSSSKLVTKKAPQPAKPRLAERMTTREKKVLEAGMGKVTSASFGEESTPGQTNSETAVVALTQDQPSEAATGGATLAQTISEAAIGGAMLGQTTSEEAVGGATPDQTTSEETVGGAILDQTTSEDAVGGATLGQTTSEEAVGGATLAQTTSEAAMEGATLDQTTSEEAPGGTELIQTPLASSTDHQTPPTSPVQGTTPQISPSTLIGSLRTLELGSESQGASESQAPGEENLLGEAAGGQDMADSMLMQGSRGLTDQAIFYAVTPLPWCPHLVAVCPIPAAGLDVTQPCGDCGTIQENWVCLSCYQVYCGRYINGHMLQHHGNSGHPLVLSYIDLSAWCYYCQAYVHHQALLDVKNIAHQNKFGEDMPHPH
Test: HDAC6 enzyme activity inhibition (HDAC Fluorimetric Drug Discovery Kit)
Type: biochemical
Details: HDAC6 over HDAC1
Procedure: An experiment was conducted to identify the selectivity of the compound represented by formula I of the present invention to HDAC6 through an experiment on HDAC1 and HDAC6 enzyme activity inhibition. […]
reportedProperty: HDAC6 selectivity (fold)

compound | HDAC6 selectivity (fold)
FC1CN(Cc2ccc(-c3cn(Cc4ccc(-c5nnc(C(F)F)o5)cn4)nn3)cc2)C1 [Compound 4559] | 2347

I: CN1CCN(Cc2ccccc2-c2cn(Cc3ccc(-c4nnc(C(F)F)o4)cc3F)nn2)CC1 [Compound 4587]
II: NC1(C(=O)Nc2cccc(-c3cn(Cc4ccc(-c5nnc(C(F)F)o5)cn4)nn3)c2)CCC1 [Compound 4498]
III: Fc1cc(-c2nnc(C(F)F)o2)ccc1Cn1cc(-c2ccc3c(c2)CN(CC2(F)CC2)C3)nn1 [Compound 17460]
Exercise: Sort (3 compounds) by HDAC6 selectivity (fold): min first. To answer, arrange all of the labels according to the requested order.
Key: I, III, II
(I: 274 fold, III: 572 fold, II: 1628 fold)

A: FC(F)c1nnc(-c2ccc(Cn3cc(-c4ccnc(N5CCN(C6CC6)CC5)c4)nn3)nc2)o1 [Compound 4593]
B: CCN1Cc2cccc(-c3cn(Cc4ccc(-c5nnc(C(F)F)o5)cn4)nn3)c2C1 [Compound 4596]
C: C[C@@H]1CN(c2cccc(-c3cn(Cc4ncc(-c5nnc(C(F)F)o5)cc4F)nn3)c2)C[C@H](C)N1 [Compound 18893]
D: FC(F)c1nnc(-c2ccc(Cn3cc(-c4ccc5c(c4)CN(C4CCC4)C5)nn3)nc2)o1 [Compound 4542]
Exercise: Sort (4 compounds) by HDAC6 selectivity (fold): min first. To answer, arrange all of the labels according to the requested order.
Key: C, B, D, A

a: Fc1cc(-c2nnc(C(F)F)o2)cnc1Cn1cc(-c2cccc(C3CCN(C4COC4)CC3)c2)nn1 [Compound 18871]
b: CCN(CC)Cc1ccc(-c2cn(Cc3ccc(-c4nnc(C(F)F)o4)cc3F)nn2)cc1 [Compound 4608]
Exercise: Given a and b , report the one with the higher recorded HDAC6 selectivity (fold). Respond using the label that marks the chosen record.
Key: b
(b: 1893 fold, a: 675 fold)

I: CN1CCN(c2cc(-c3cn(Cc4ccc(-c5nnc(C(F)F)o5)cn4)nn3)ccn2)CC1 [Compound 4582]
II: Fc1cc(-c2nnc(C(F)F)o2)ccc1Cn1cc(-c2csc(CN3CC[C@@H](F)C3)c2)nn1 [Compound 18180]
Exercise: Could you determine which record has the numerically smaller HDAC6 selectivity (fold)? Candidates: I and II Respond using the label that marks the chosen record.
Key: II
(II: 672 fold, I: 2283 fold)
